Target: Recombinant AMPK α1/β1/γ1 complex (Homo sapiens (Human), UniProt Q13131+Q9Y478)
Sequence (Q13131 whole entry): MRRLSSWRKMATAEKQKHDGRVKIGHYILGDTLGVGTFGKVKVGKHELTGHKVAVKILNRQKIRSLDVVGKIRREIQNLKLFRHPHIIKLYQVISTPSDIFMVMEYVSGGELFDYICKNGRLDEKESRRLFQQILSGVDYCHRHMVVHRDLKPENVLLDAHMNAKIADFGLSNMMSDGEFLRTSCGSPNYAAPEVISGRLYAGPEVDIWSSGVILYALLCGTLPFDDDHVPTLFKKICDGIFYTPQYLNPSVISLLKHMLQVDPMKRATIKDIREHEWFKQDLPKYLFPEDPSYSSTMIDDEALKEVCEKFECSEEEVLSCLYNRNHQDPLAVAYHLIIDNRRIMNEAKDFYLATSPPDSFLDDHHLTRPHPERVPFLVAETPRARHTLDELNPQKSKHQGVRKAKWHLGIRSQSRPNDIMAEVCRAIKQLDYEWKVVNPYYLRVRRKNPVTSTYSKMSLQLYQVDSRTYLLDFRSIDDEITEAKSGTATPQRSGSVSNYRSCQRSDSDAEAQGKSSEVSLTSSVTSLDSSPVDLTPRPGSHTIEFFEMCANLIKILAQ
Sequence (Q9Y478 whole entry): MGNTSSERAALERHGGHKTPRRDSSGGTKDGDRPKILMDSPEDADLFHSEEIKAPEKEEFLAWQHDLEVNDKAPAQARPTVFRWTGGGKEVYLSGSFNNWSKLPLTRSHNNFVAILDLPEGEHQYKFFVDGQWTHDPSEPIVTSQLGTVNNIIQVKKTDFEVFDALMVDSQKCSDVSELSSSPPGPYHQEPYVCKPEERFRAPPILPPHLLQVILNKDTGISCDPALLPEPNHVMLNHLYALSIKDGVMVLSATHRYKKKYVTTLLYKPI
Sequence (P54619 whole entry partner): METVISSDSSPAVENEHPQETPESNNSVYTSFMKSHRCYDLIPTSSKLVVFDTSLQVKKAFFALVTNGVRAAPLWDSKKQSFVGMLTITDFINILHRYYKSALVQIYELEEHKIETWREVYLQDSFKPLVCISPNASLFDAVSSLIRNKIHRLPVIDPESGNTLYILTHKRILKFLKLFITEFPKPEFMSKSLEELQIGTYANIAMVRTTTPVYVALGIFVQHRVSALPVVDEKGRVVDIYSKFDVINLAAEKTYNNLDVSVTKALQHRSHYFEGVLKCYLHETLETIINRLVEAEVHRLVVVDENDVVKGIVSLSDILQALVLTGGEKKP
Assay: In vitro pAMPK1 kinase activation assay (ADP-Glo, SAMS peptide)
Conditions: AMPK α1/β1/γ1 pre-activated with CAMKK2; 12-point curve; 15 min compound incubation
pEC50: −log10 of the molar value.
Observation Type: pEC50

Use these answered entries as a reference point.
>>> endpoint_value("OCCN1CCN(Cc2ccc(-c3ccc(-c4nc5nc(O[C@@H]6CO[C@H]7[C@@H]6OC[C@H]7O)[nH]c5cc4Cl)cc3)cc2)CC1")
9.14
>>> endpoint_value("CN(CCS(=O)(=O)O)C(=O)c1ccc(-c2ccc(-c3nc4nc(O[C@@H]5CO[C@H]6[C@@H]5OC[C@H]6O)[nH]c4cc3Cl)cc2)cc1")
8.75
>>> endpoint_value("O=C(NCCCS(=O)(=O)O)c1ccc(-c2ccc(-c3nc4nc(O[C@@H]5CO[C@H]6[C@@H]5OC[C@H]6O)[nH]c4cc3Cl)cc2)cc1")
9.21
>>> endpoint_value("O=P(O)(O)c1ccc(-c2ccc(-c3nc4nc(O[C@@H]5CO[C@H]6[C@@H]5OC[C@H]6O)[nH]c4cc3Cl)cc2)cc1")
8.85
>>> endpoint_value("CN(CCOCCO)Cc1ccc(-c2ccc(-c3cc4nc(O[C@@H]5CO[C@H]6[C@@H]5OC[C@H]6O)[nH]c4cc3Cl)cc2)cc1")
8.89

I = OCC1CN(Cc2ccc(-c3ccc(-c4cc5nc(O[C@@H]6CO[C@H]7[C@@H]6OC[C@H]7O)[nH]c5cc4Cl)cc3)cc2)C1
II = OCC1(CO)CCN(Cc2ccc(-c3ccc(-c4nc5nc(O[C@@H]6CO[C@H]7[C@@H]6OC[C@H]7O)[nH]c5cc4Cl)cc3)cc2)CC1
III = O[C@@H]1CO[C@H]2[C@@H]1OC[C@H]2Oc1nc2cc(-c3ccc(-c4ccc(CN5CCNCC5)cc4)cc3)c(Cl)cc2[nH]1
Ask | Please list these in order of increasing pEC50. Thank you! Rank the items, then write their labels in that order.
Reply | III, I, II
(III: 8.75, I: 8.96, II: 9.24)

A = CN(CCOCCO)C(=O)c1ccc(-c2ccc(-c3cc4nc(O[C@@H]5CO[C@H]6[C@@H]5OC[C@H]6O)[nH]c4cc3Cl)cc2)cc1
B = O=C(NCCCP(=O)(O)O)c1ccc(-c2ccc(-c3nc4nc(O[C@@H]5CO[C@H]6[C@@H]5OC[C@H]6O)[nH]c4cc3Cl)cc2)cc1
Ask | Decide: A or B , by lowest recorded pEC50. Provide the label of your selected option as the answer.
Reply | A
(A: 8.94, B: 9.30)
